# experimental_system: [^3 H]spiroperidol binding
# test_summary: Inhibition of [^3 H]spiroperidol binding in a receptor assay
# details: [^3 H]spiroperidol radioligand
Measured IC50 of individual entries
Your answer should be a number followed by the unit of measure.

Problem: Tell me its IC50 given `C1=C(c2ccccc2)CCN(CCCCSc2ccncc2)C1` as the entry.
Result: 92 µM

Problem: Return IC50 (reported value) for this compound: C1=C(c2cccs2)CCN(CCCCSc2ccncc2)C1.Cl.Cl [Example 5, dihydrochloride]
Result: 190 µM

Problem: Name the recorded IC50 of the compound listed here: `C1=C(c2cccs2)CCN(CCCSc2ccncc2)C1`
Result: 86 µM

Problem: Answer with reported IC50 of `C1=C(c2ccccc2)CCN(CCCSc2ccncc2)C1`
Result: 46 µM

Attribution: patent US5120748A
